# reported pEC50; entries follow
# Test system: T1, cynomolgus TIGIT over-expressed on CHO-K1 cells (cynomolgus, UniProt A0A7N9I9V4 89-312)
# T1 construct: whole, on cells; also called CHO-K1/cynomolgus TIGIT cells
# T1 sequence (A0A7N9I9V4 entry or part of it): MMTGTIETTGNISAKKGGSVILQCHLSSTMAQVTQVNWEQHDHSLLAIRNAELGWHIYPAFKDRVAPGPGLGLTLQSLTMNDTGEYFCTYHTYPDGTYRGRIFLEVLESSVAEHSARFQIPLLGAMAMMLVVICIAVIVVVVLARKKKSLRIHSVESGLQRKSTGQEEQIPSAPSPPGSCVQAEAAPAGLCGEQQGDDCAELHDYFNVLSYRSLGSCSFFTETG
# Assay procedure: FACS, CHO-K1 cells over-expressing cynomolgus TIGIT
Just the number, please; pEC50 means minus log10 of the concentration in mol/L.

Some binders with known pEC50 results, for comparison:
Binder | pEC50
104G12E12G2 (antibody, V domains shown, Mouse monoclonal antibody; also called mouse anti-human TIGIT monoclonal antibody 104G12E12G2) VH: EVQLQQSGPELVKPGASVKISCKASGYSFTGSYIHWVKQNHVKTLEWIGRINPHNGPTSYNQNFKGKASLTVDLSSSTAYMEVHSLTSEDSAVYYCVRYDGYYGGALDYWGQGTSVTVSS VL: DIQMTQSPSSLSASLGERVSLTCRASQEISGYLSWLQQKPDGTIKRLIYAASTLDSGVPKRFSGSRSGSDYSLTISSLESEDFADYYCLQYASYPYTFGGGTKLEIK | 7.95
121C2F10B5 (antibody, V domains shown, Mouse monoclonal antibody; also called mouse anti-human TIGIT monoclonal antibody 121C2F10B5) VH: EVQLVESGGDLVKPGGSLKLSCAASGFTFSTYGMSWVRQTPDKRLEWVATISSGGSYTYYPDSVKGRFTISRDNAKNTLYLQMSSLKSEDTAMYYCARQVHYFYAMDYWGQGTSVTVSS VL: DIQMTQSPASLSVSVGETVTITCRASENIYSNLAWYQQKQGKSPQVLVYAATNLADGVPSRFSGSRSGTQYSLKINSLQSEDFGSYYCQHFWDNAYTFGGGTKLEIK | 7.99
92E9D4B4 (antibody, V domains shown, Mouse monoclonal antibody; also called mouse anti-human TIGIT monoclonal antibody 92E9D4B4) VH: EVMLVESGGGLVKPGGSLKLSCAASGFTFSFYTMSWVRQTPEKRLEWVATISGGGGDTYYPDNVKGRFTISRDNAKNNLYLQMSSLRSEDTALYYCARSLPVDFWGQGTTLTVSS VL: QIVLTQSPAIMSASLGERVTMTCTASSSVSSTYLHWYQQKPGSSPKFWIYSTSNMASGVPARFSGSGSGTSYSLTISSMEAEDAATYYCHYYHRSPYTFGGGTKLEIK | 8.94

Which pEC50 is listed for 64G1E9B4 (antibody, V domains shown, Mouse monoclonal antibody; also called mouse anti-human TIGIT monoclonal antibody 64G1E9B4) VH: EVQLQQSGPELVKPGASVKISCKTSGYTFTEHVIHWVKQSHGKSLEWIGGFNPNHDGTIYNQIFRGKATLTVDKSSSTAYMELRSLTSEDSAVYFCTRAAKLLFAMDYWGQGTSVTVSS VL: DIVMTQSHKFMSTSIGDRVSITCKASQHVSNAVVWYQQKPGQSPKLLIYSPSYRFTGVPDRFTGSGSGTDFTFTISSVQAEDLAVYYCQQHYSTPWTFGGGTKLEIK ? 8.80

I am curious: what pEC50 value has been reported for 100C4E7D11 (antibody, V domains shown, Mouse monoclonal antibody; also called mouse anti-human TIGIT monoclonal antibody 100C4E7D11) VH: EVMLVESGGGLVKPGGSLKLSCAASGFTFSFYTMSWVRQTPEKRLEWVATISSGGGSTYYSDSVKGRFTISRDNAKNNLYLQMTSLRSEDTALYYCSRSLPVDYWGQGTTLTVSS VL: QIVLTQSPAIMSASLGERVTMTCTASSSVSSTYLHWYQQKPGSSPKLWIYSTSNLASGVPARFSGSGSGTSYSLTISSMEAEDAATYYCHLYHHSPYTFGGGTKLEIK ? 8.94

Ref: patent US20210095028A1
